# Tested on: giant foxtail (Setaria faberii)
# assay-info: Test A postemergence
# Type: in vivo
# assay-context: 125 g ai/ha, postemergence; visual injury rating on 0 to 100 scale (0 no effect, 100 complete control), approx. 10 d
Exercise: state measured Foxtail, Giant plant response rating for each of the molecules provided.
One number for each entry.

Sample records with Foxtail, Giant plant response rating:
O=C(Nc1cccc(F)c1F)C1C(=O)N(c2ccccc2)CC1c1cccc(C(F)(F)F)c1 (stereo not shown)    0
O=C1NCC(c2ccc(Br)cc2)C1C(=O)Nc1cccc(F)c1 (stereo not shown)    30

Batch: Foxtail, Giant plant response rating for all items listed.
1. COc1c(F)ccc(NC(=O)C2C(=O)N(C)CC2c2cccc(OC(F)(F)C(F)F)c2)c1F (stereo not shown)
2. Cc1cc(NC(=O)C2C(=O)NCC2c2ccc(F)c(F)c2)ccc1F (stereo not shown)

1: 80; 2: 0

Data origin, for the record: patent US12077503B2
